This collection of values is drawn from paper PMC2741138.

Listed here are binders together with their documented Ki.
target: SRPK1 (UniProt Q96SB4 1-655); test: kinase competition assay
Sequence (Q96SB4 whole entry): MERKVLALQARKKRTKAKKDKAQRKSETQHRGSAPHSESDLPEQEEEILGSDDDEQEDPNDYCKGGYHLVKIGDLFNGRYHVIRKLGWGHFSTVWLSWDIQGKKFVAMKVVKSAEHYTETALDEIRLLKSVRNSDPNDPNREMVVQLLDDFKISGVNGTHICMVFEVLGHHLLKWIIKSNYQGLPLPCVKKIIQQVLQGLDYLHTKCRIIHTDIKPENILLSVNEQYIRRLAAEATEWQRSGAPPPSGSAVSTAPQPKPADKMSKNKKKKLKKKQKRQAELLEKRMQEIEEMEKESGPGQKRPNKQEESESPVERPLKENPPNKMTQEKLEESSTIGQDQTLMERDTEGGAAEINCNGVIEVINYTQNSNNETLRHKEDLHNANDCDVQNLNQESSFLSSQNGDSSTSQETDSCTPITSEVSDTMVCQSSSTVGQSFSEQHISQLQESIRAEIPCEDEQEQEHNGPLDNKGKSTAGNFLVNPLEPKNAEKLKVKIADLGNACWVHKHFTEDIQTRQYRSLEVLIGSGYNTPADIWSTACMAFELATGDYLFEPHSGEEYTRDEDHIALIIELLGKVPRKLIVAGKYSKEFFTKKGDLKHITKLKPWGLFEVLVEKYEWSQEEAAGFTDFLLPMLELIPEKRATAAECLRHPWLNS
Numbers only here, please. The scale is nM.

ASF(RRM1) (domain or fragment) MSGGGVIRGPAGNNDCRIYVGNLPPDIRTKDIEDVFYKYGAIRDIDLKNRRGGPPFAFVEFEDPRDAEDAVYGRDGYDYDGYRLRVEFPRS | 1600
ASF(RRM2) (domain or fragment) NRVVVSGLPPSGSWQDLKDHMREAGDVCYADVYRDGTGVVEFVRKEDMTYAVRKLDNTKFRSHEGETAYIRVKVDGPRSPSYG | 6300

With those in mind, consider the next binder.
Per the records, this binder ( RSRSRSRSRSRSRSRSRSRSRSRSRSRSRSRS (Expanded from the printed formula (RS)16; any flanking residues or end caps are not stated) [(RS)16] ) has Ki equal to 160
